Sourced from ChEMBL document CHEMBL1147265

Test system: Raji
Experiment: Inhibition of 12-O-tetradecanoylphorbol-13-acetate-induced EBV-early antigen activation in human Raji cells assessed as EA induction at 100 molar ratio relative to 12-O-tetradecanoylphorbol-13-acetate by immunofluorescence technique
Assay type: cell-based
Set-up: scale not given: the % may be the effect or the level left
Conditions: human gammaherpesvirus 4
What Activity was measured for each of the following?
Quick note: give the figure in %, leave out the unit.

With Raji as the test system, CC(=O)O[C@@H]1C(=O)C2=C(C(=O)C[C@H]3C(C)(C)C(=O)CC[C@]23C)[C@]2(C)C(=O)C[C@H]([C@H](C)CCC(=O)O)[C@@]12C [LUCIDENIC ACID D2] showed Activity of 73.8

Bench note, Raji: C[C@H](CC(=O)C[C@@H](C)[C@H]1CC(=O)[C@@]2(C)C3=C(C(=O)C[C@]12C)[C@@]1(C)CCC(=O)C(C)(C)[C@@H]1CC3=O)C(=O)O [GANODERIC ACID E] , Activity reads 79

Item COC(=O)CC[C@@H](C)[C@H]1C[C@H](O)[C@@]2(C)C3=C(C(=O)C[C@]12C)[C@@]1(C)CCC(=O)C(C)(C)[C@@H]1C[C@@H]3O [METHYL LUCIDENATE Q] ; assay system Raji; Activity reported as 73.7

Form: item COC(=O)CC[C@@H](C)[C@H]1CC(=O)[C@@]2(C)C3=C(C(=O)[C@@H](O)[C@]12C)[C@@]1(C)CC[C@H](O)C(C)(C)[C@@H]1CC3=O [METHYL LUCIDENATE L] ; test system Raji; Activity: 71.9

Record CC(=O)O[C@@H]1C(=O)C2=C(C(=O)C[C@H]3C(C)(C)[C@@H](O)CC[C@]23C)[C@]2(C)C(=O)C[C@H]([C@H](C)CCC(=O)O)[C@@]12C [LUDICENIC ACID E2] has Raji Activity equal to 73.1

Hey, Raji data for COC(=O)CC[C@@H](C)[C@H]1CC(=O)[C@@]2(C)C3=C(C(=O)[C@@H](OC(C)=O)[C@]12C)[C@@]1(C)CC[C@H](O)C(C)(C)[C@@H]1CC3=O [METHYL LUCIDENATE E2] : Activity came out at 76

Let me check: CC(=O)O[C@@H]1C(=O)C2=C([C@@H](O)C[C@H]3C(C)(C)[C@@H](O)CC[C@]23C)[C@]2(C)C(=O)C[C@H]([C@H](C)CCC(=O)O)[C@@]12C [LUCIDENIC ACID P] , system Raji, measured Activity is 74.2

Case COC(=O)CC[C@@H](C)[C@H]1CC(=O)[C@@]2(C)C3=C(C(=O)C[C@]12C)[C@@]1(C)CCC(=O)C(C)(C)[C@@H]1C[C@@H]3O [METHYL LUCIDENATE A] , Raji, Activity recorded as 75.1

Activity value, target or system Raji, for CC(=O)O[C@@H]1C(=O)C2=C(C(=O)C[C@H]3C(C)(C)C(=O)CC[C@]23C)[C@]2(C)C(=O)C[C@H]([C@H](C)CC(=O)CC(C)C(=O)O)[C@@]12C (stereo not given in full) [GANODERIC ACID F] : 77.1

Recorded Activity for COC(=O)CC[C@@H](C)[C@H]1CC(=O)[C@@]2(C)C3=C(C(=O)C[C@]12C)[C@@]1(C)CCC(=O)C(C)(C)[C@@H]1CC3=O [METHYL LUCIDENATE F] on Raji was 75.4

----------
Field: viability at 1000 molar ratio. Provide a value for each of the molecules that follow.
Assay: Cytotoxicity against human Raji cells assessed as cell viability at 1000 molar ratio by trypan blue staining method
Type: cell-based
Conditions: read-out: Activity
Please reply with the bare figure in % and do not write the unit itself.

Query CC(=O)OC1C[C@H]([C@H](C)CC/C=C(/C)C(=O)O)[C@@]2(C)CC=C3C(=CC[C@H]4C(C)(C)C(=O)CC[C@]34C)[C@]12C (stereo partly drawn) yields viability at 1000 molar ratio of 70

Record summary for COC(=O)C(C)CC(=O)C[C@@H](C)[C@H]1CC(=O)[C@@]2(C)C3=C(C(=O)[C@@H](OC(C)=O)[C@]12C)[C@@]1(C)CCC(=O)C(C)(C)[C@@H]1CC3=O (stereo partly drawn) [METHYL GANODERATE F] : reported viability at 1000 molar ratio = 70

Record COC(=O)CC[C@@H](C)[C@H]1CC(=O)[C@@]2(C)C3=C(C(=O)[C@@H](O)[C@]12C)[C@@]1(C)CC[C@H](O)C(C)(C)[C@@H]1CC3=O [METHYL LUCIDENATE L] . Reported viability at 1000 molar ratio: 70

----------
Assay: Cytotoxicity against human Raji cells assessed as cell viability at 1000 molar ratio by trypan blue staining method
Format: cell-based
Conditions: read-out: Activity
OUTCOME_MEASURE: viability at 1000 molar ratio (%)
Output spec: scalar in %, unitless text.

The compound COC(=O)CC[C@@H](C)[C@H]1CC(=O)[C@@]2(C)C3=C(C(=O)[C@@H](OC(C)=O)[C@]12C)[C@@]1(C)CCC(=O)C(C)(C)[C@@H]1CC3=O [METHYL LUCIDENATE D2] showed viability at 1000 molar ratio equal to 70

Given item C[C@H](CCC(=O)O)[C@H]1CC(=O)[C@@]2(C)C3=C(C(=O)[C@@H](O)[C@]12C)[C@@]1(C)CC[C@H](O)C(C)(C)[C@@H]1C[C@@H]3O , the value recorded as its viability at 1000 molar ratio is 70

get_value(item= C[C@H](CCC(=O)O)[C@H]1CC(=O)[C@@]2(C)C3=C(C(=O)C[C@]12C)[C@@]1(C)CCC(=O)C(C)(C)[C@@H]1C[C@@H]3O , readout=viability at 1000 molar ratio) returns 70

----------
I'd appreciate it if you could supply Activity values for the items below.
Test system: Raji
Assay: Inhibition of 12-O-tetradecanoylphorbol-13-acetate-induced EBV-early antigen activation in human Raji cells assessed as EA induction at 500 molar ratio relative to 12-O-tetradecanoylphorbol-13-acetate by immunofluorescence technique
Assay type: cell-based
Parameters: scale not given: the % may be the effect or the level left
Details: human gammaherpesvirus 4

// recorded Activity for COC(=O)C(C)CC(=O)C[C@@H](C)[C@H]1CC(=O)[C@@]2(C)C3=C(C(=O)[C@@H](OC(C)=O)[C@]12C)[C@@]1(C)CCC(=O)C(C)(C)[C@@H]1CC3=O (stereo partly specified) [METHYL GANODERATE F] : 26.4%

Just so you know, measured Activity for COC(=O)CC[C@@H](C)[C@H]1CC(=O)[C@@]2(C)C3=C(C(=O)C[C@]12C)[C@@]1(C)CCC(=O)C(C)(C)[C@@H]1CC3=O [METHYL LUCIDENATE F] came out at 26.8%

COC(=O)CC[C@@H](C)[C@H]1CC(=O)[C@@]2(C)C3=C(C(=O)[C@@H](OC(C)=O)[C@]12C)[C@@]1(C)CC[C@H](O)C(C)(C)[C@@H]1C[C@@H]3O [METHYL LUCIDENATE P] yielded Activity of 28.9%

Consider COC(=O)CC[C@@H](C)[C@H]1CC(=O)[C@@]2(C)C3=C(C(=O)[C@@H](OC(C)=O)[C@]12C)[C@@]1(C)CC[C@H](O)C(C)(C)[C@@H]1CC3=O [METHYL LUCIDENATE E2] . Its measured Activity is 27.9%

Lab note: CC(=O)O[C@@H]1C(=O)C2=C(C(=O)C[C@H]3C(C)(C)C(=O)CC[C@]23C)[C@]2(C)C(=O)C[C@H]([C@H](C)CC(=O)CC(C)C(=O)O)[C@@]12C (stereo partly specified) gave Activity of 28.5%

Recorded Activity (compound C[C@H](CCC(=O)O)[C@H]1CC(=O)[C@@]2(C)C3=C(C(=O)[C@@H](O)[C@]12C)[C@@]1(C)CC[C@H](O)C(C)(C)[C@@H]1C[C@@H]3O ): 24%

compound CC(=O)O[C@@H]1C(=O)C2=C([C@@H](O)C[C@H]3C(C)(C)[C@@H](O)CC[C@]23C)[C@]2(C)C(=O)C[C@H]([C@H](C)CCC(=O)O)[C@@]12C , Activity observed: 27.5%

Briefly, Activity measured for CC(=O)OC1C[C@H]([C@H](C)CC/C=C(/C)C(=O)O)[C@@]2(C)CC=C3C(=CC[C@H]4C(C)(C)C(=O)CC[C@]34C)[C@]12C (stereo partly specified) : 26.4%

The measured Activity associated with COC(=O)CC[C@@H](C)[C@H]1CC(=O)[C@@]2(C)C3=C(C(=O)C[C@]12C)[C@@]1(C)CCC(=O)C(C)(C)[C@@H]1C[C@@H]3O [METHYL LUCIDENATE A] reads 24.9%

Recorded Activity (compound CC(=O)O[C@@H]1C(=O)C2=C(C(=O)C[C@H]3C(C)(C)C(=O)CC[C@]23C)[C@]2(C)C(=O)C[C@H]([C@H](C)CCC(=O)O)[C@@]12C [LUCIDENIC ACID D2] ): 26.1%

Activity for C[C@H](CC(=O)C[C@@H](C)[C@H]1CC(=O)[C@@]2(C)C3=C(C(=O)C[C@]12C)[C@@]1(C)CCC(=O)C(C)(C)[C@@H]1CC3=O)C(=O)O is 28.3%

Data point: CC(=O)O[C@@H]1C(=O)C2=C(C(=O)C[C@H]3C(C)(C)[C@@H](O)CC[C@]23C)[C@]2(C)C(=O)C[C@H]([C@H](C)CCC(=O)O)[C@@]12C [LUDICENIC ACID E2] ; Activity = 23.5%

Input COC(=O)CC[C@@H](C)[C@H]1CC(=O)[C@@]2(C)C3=C(C(=O)[C@@H](O)[C@]12C)[C@@]1(C)CC[C@H](O)C(C)(C)[C@@H]1CC3=O [METHYL LUCIDENATE L] . Output Activity: 21.7%

Consider COC(=O)CC[C@@H](C)[C@H]1CC(=O)[C@@]2(C)C3=C(C(=O)[C@@H](OC(C)=O)[C@]12C)[C@@]1(C)CCC(=O)C(C)(C)[C@@H]1CC3=O [METHYL LUCIDENATE D2] . Its measured Activity is 29.3%

Item: C[C@H](CCC(=O)O)[C@H]1CC(=O)[C@@]2(C)C3=C(C(=O)C[C@]12C)[C@@]1(C)CCC(=O)C(C)(C)[C@@H]1C[C@@H]3O | Activity: 22.7%

Lab note: measured Activity of COC(=O)CC[C@@H](C)[C@H]1C[C@H](O)[C@@]2(C)C3=C(C(=O)C[C@]12C)[C@@]1(C)CCC(=O)C(C)(C)[C@@H]1C[C@@H]3O [METHYL LUCIDENATE Q] was 24.6%
